System: CYP3A4/5
Experiment: Clinical study: effect of boceprevir on the pharmacokinetic profile of midazolam in healthy adult subjects
Conditions: both, human, in vivo, 4 mg, MDZ AUC (0-24 hr) LS Mean, MDZ Alone (Day 8)
Readout type: AUC(0-t) (ng·h/mL)
The figure you give is taken to be in ng·h/mL; do not add the unit.

// Cc1ncc2n1-c1ccc(Cl)cc1C(c1ccccc1F)=NC2 : AUC(0-t) value = 56.1

###

Biological target: CYP2A6 (Homo sapiens)
Construct: Pooled human liver microsomes (from sixteen individuals) were used as the source of enzymes; tissue XenoTech, LLC; host or cells: human liver microsomes, pool of sixteen donors
Sequence (P11509 whole entry): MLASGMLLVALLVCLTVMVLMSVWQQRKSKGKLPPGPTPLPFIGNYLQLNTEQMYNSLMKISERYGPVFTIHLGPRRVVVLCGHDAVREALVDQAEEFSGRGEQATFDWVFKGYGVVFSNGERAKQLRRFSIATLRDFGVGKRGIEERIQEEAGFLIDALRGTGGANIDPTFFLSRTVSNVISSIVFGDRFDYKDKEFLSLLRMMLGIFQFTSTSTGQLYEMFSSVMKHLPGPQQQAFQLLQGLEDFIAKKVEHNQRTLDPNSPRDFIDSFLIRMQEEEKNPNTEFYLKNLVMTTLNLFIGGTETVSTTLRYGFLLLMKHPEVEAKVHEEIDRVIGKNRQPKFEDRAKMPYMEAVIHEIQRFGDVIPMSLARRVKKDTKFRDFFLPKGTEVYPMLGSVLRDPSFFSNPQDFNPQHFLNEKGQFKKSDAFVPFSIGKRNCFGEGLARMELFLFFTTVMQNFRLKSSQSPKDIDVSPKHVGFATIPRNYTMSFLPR
Assay: CYP2A6 inhibition, coumarin 7-hydroxylation in human liver microsomes
Type: in vitro ADME
Settings: direct inhibition, zero-minute pre-incubation, pooled human liver microsomes
Readout type: IC50

Lookup result for CC(C)(C)NC(=O)NC(C(=O)N1CC2C([C@H]1C(=O)NC(CC1CCC1)C(=O)C(N)=O)C2(C)C)C(C)(C)C (stereo partly shown) ; measured IC50: > 100 µM

###

Target: CYP2B6 (Homo sapiens)
Construct: Pooled human liver microsomes (from sixteen individuals) were used as the source of enzymes; tissue XenoTech, LLC; host or cells: human liver microsomes, pool of sixteen donors
Test: CYP2B6 inhibition, bupropion hydroxylation in human liver microsomes
Format: in vitro ADME
Details: human, pooled human liver microsomes, pH 7.4, probe bupropion (hydroxylation), time-dependent inhibition, 30-minute pre-incubation; read-out: Maximum Inhibition at 100 μM
Readout type: inhibition at 5 min, 100 µM (%)
Numbers only; they are read as %.

Lab note: measured inhibition at 5 min, 100 µM of CC(C)(C)NC(=O)NC(C(=O)N1CC2C([C@H]1C(=O)NC(CC1CCC1)C(=O)C(N)=O)C2(C)C)C(C)(C)C (stereo partly shown) [Boceprevir] was 6.9

###

Target: CYP2B6 (Homo sapiens, UniProt P20813)
Construct: Pooled human liver microsomes (from sixteen individuals) were used as the source of enzymes; tissue XenoTech, LLC; host or cells: human liver microsomes, pool of sixteen donors
Sequence (P20813 whole entry): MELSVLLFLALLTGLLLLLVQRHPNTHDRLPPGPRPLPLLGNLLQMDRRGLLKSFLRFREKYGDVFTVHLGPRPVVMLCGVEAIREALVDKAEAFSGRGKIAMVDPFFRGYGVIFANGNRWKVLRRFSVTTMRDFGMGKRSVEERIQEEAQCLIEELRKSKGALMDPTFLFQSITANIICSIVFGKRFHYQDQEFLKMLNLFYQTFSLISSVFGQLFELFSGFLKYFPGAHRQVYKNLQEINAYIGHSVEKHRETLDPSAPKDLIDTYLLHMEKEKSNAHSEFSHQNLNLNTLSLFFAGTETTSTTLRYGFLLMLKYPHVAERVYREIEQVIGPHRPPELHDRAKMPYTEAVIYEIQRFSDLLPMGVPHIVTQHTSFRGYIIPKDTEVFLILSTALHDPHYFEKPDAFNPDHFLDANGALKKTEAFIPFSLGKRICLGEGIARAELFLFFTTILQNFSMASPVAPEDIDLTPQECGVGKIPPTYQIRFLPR
Assay: CYP2B6 inhibition, bupropion hydroxylation in human liver microsomes
Assay type: in vitro ADME
Conditions: time-dependent inhibition, 30-minute pre-incubation
pIC50: −log10 of the molar value.
Readout type: pIC50

Briefly, pIC50 measured for CC(C)(C)NC(=O)NC(C(=O)N1CC2C([C@H]1C(=O)NC(CC1CCC1)C(=O)C(N)=O)C2(C)C)C(C)(C)C (stereo partly shown) : < 4.00

###

Tested on: CYP3A4/5
Assay: Clinical study: effect of boceprevir on the pharmacokinetic profile of midazolam in healthy adult subjects
Conditions: both, human, in vivo, po, 4 mg, MDZ Tmax, MDZ Alone (Day-1), MDZ 4 mg oral, n = 12
Readout type: Tmax (h)
Give the quantity in h, number only.

Sample Cc1ncc2n1-c1ccc(Cl)cc1C(c1ccccc1F)=NC2 ; Tmax observed: 2

###

Biological target: CYP2C8 (Homo sapiens)
Construct: Pooled human liver microsomes (from sixteen individuals) were used as the source of enzymes; tissue XenoTech, LLC; host or cells: human liver microsomes, pool of sixteen donors
Sequence (P10632 1-490): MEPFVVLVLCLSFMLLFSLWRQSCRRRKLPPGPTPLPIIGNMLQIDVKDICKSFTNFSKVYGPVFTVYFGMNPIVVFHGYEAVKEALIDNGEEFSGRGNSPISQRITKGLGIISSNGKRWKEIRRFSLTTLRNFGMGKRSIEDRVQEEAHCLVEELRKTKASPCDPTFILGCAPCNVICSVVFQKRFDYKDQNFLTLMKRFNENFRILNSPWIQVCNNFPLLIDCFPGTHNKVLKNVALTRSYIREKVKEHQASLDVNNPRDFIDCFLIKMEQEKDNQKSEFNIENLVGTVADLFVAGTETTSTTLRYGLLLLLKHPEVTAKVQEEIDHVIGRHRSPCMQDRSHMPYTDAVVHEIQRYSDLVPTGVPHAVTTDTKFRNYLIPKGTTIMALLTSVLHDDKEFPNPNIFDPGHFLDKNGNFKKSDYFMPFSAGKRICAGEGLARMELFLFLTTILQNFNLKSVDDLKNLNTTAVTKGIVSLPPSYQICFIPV
Assay: CYP2C8 inhibition, amodiaquine N-dealkylation in human liver microsomes
Assay type: in vitro ADME
Conditions: direct inhibition, zero-minute pre-incubation, pooled human liver microsomes
pIC50: −log10 of the molar value.
Readout type: pIC50

CC(C)(C)NC(=O)NC(C(=O)N1CC2C([C@H]1C(=O)NC(CC1CCC1)C(=O)C(N)=O)C2(C)C)C(C)(C)C (stereo partly shown) on CYP2C8 (Homo sapiens) gives pIC50 = < 4.00

###

Molecular target: CYP2C19 (Homo sapiens)
Construct: Pooled human liver microsomes (from sixteen individuals) were used as the source of enzymes; tissue XenoTech, LLC; host or cells: human liver microsomes, pool of sixteen donors
Assay: CYP2C19 inhibition, S-mephenytoin 4′-hydroxylation in human liver microsomes
Format: in vitro ADME
Conditions: human, pooled human liver microsomes, pH 7.4, probe S-mephenytoin (4′-hydroxylation), time-dependent inhibition, 30-minute pre-incubation; read-out: Maximum Inhibition at 100 μM
Readout type: inhibition at 5 min, 100 µM (%)
# number only, unit % dropped from output

With CYP2C19 (Homo sapiens) as the test system, CC(C)(C)NC(=O)NC(C(=O)N1CC2C([C@H]1C(=O)NC(CC1CCC1)C(=O)C(N)=O)C2(C)C)C(C)(C)C (stereo partly shown) showed inhibition at 5 min, 100 µM of 14

###

System: CYP3A4/5
Assay: Clinical study: effect of boceprevir on the pharmacokinetic profile of midazolam in healthy adult subjects
Conditions: both, human, in vivo, 4 mg, MDZ Tmax, MDZ Alone (Day 8), after boceprevir
Readout type: Tmax

Note to self: Tmax recorded for Cc1ncc2n1-c1ccc(Cl)cc1C(c1ccccc1F)=NC2 [MDZ, midazolam] was 2 h

###

Tested on: CYP3A4/5
Assay: CYP3A4/5 inhibition, midazolam 1′-hydroxylation in human liver microsomes (IC50 and Ki)
Assay type: in vitro ADME
Conditions: human, pooled human liver microsomes, pH 7.4, probe midazolam (1′-hydroxylation), direct inhibition, zero-minute pre-incubation
Readout type: IC50 at 5 min

// recorded IC50 at 5 min for CC(C)(C)NC(=O)NC(C(=O)N1CC2C([C@H]1C(=O)NC(CC1CCC1)C(=O)C(N)=O)C2(C)C)C(C)(C)C (stereo partly shown) [Boceprevir] : 11 µM

###

Target: CYP2C19 (Homo sapiens, UniProt P33261)
Construct: Pooled human liver microsomes (from sixteen individuals) were used as the source of enzymes; tissue XenoTech, LLC; host or cells: human liver microsomes, pool of sixteen donors
Sequence (P33261 whole entry): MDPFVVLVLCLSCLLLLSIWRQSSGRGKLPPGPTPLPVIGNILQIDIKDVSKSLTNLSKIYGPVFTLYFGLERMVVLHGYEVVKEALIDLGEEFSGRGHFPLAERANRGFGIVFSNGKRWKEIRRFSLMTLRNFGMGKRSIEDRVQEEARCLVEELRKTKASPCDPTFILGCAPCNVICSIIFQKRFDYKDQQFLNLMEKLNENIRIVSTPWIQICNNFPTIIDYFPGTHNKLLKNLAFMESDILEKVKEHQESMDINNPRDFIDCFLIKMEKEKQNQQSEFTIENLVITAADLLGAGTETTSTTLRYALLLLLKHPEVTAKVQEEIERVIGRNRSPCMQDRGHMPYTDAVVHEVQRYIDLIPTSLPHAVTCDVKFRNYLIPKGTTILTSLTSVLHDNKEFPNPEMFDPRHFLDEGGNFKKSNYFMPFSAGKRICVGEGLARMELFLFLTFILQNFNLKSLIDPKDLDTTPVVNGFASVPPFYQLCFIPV
Test: CYP2C19 inhibition, S-mephenytoin 4′-hydroxylation in human liver microsomes
Type: in vitro ADME
Conditions: human, pooled human liver microsomes, pH 7.4, probe S-mephenytoin (4′-hydroxylation), direct inhibition, zero-minute pre-incubation; read-out: Max. Inhib. at 100 μM
Readout type: inhibition at 5 min, 100 µM

Measured inhibition at 5 min, 100 µM of CC(C)(C)NC(=O)NC(C(=O)N1CC2C([C@H]1C(=O)NC(CC1CCC1)C(=O)C(N)=O)C2(C)C)C(C)(C)C (stereo partly shown) : 25%

###

Test system: CYP3A4/5
Assay: Clinical study: effect of boceprevir on the pharmacokinetic profile of midazolam in healthy adult subjects
Conditions: both, human, in vivo, 4 mg, MDZ AUC(0-24 hr), MDZ Alone (Day 13), after boceprevir
Readout type: AUC(0-t) (ng·h/mL)
Express the result in ng·h/mL but write the number alone.

Summary for this molecule, Cc1ncc2n1-c1ccc(Cl)cc1C(c1ccccc1F)=NC2 : AUC(0-t) is 45.4

###

Tested on: CYP3A4/5
Assay: Clinical study: effect of boceprevir on the pharmacokinetic profile of midazolam in healthy adult subjects
Conditions: both, human, in vivo, po, 4 mg, MDZ AUC(0-24 hr), MDZ Alone (Day-1), MDZ 4 mg oral, n = 12
Procedure: A clinical study was conducted to determine the effects of boceprevir on the pharmacokinetic (PK) profile of midazolam (MDZ) to assess the ability of boceprevir to inhibit CYP3A4/5 in vivo by monitoring its effect on the metabolism of MDZ, a sensitive CYP3A4/5 substrate. This study was conducted in healthy adult subjects (seven male and five female subjects), at a single center, in conformance with Good Clinical Practices. […]
Readout type: AUC(0-t) (ng·h/mL)
Expressed in ng·h/mL, but write only the number.

// AUC(0-t) lookup, molecule = Cc1ncc2n1-c1ccc(Cl)cc1C(c1ccccc1F)=NC2 , result: 56.4

###

Test system: CYP3A4/5
Experiment: Clinical study: effect of boceprevir on the pharmacokinetic profile of midazolam in healthy adult subjects
Settings: both, human, in vivo, 4 mg, MDZ Cmax LS Mean, MDZ Alone (Day 13)
Readout type: Cmax (ng/mL)
Unit ng/mL implied. Number only.

The compound identified as Cc1ncc2n1-c1ccc(Cl)cc1C(c1ccccc1F)=NC2 registered its Cmax at 8.94

###

Molecular target: CYP2C8 (Homo sapiens)
Construct: Pooled human liver microsomes (from sixteen individuals) were used as the source of enzymes; tissue XenoTech, LLC; host or cells: human liver microsomes, pool of sixteen donors
Test: CYP2C8 inhibition, amodiaquine N-dealkylation in human liver microsomes
Type: in vitro ADME
Settings: human, pooled human liver microsomes, pH 7.4, probe amodiaquine (N-dealkylation); direct inhibition, zero-minute pre-incubation; read-out: Max. Inhib. at 100 μM
Readout type: inhibition at 5 min, 100 µM
Hey, just the number and the unit after it is fine.

For reference, reported inhibition at 5 min, 100 µM for CC(C)(C)NC(=O)NC(C(=O)N1CC2C([C@H]1C(=O)NC(CC1CCC1)C(=O)C(N)=O)C2(C)C)C(C)(C)C (stereo partly shown) stands at 25%
